Target: human IP6K2 (Homo sapiens)
Construct: human IP6K2 (1-426) gene; GST; made in house; host or cells: Sf-9 insect cells
Sequence (Q9UHH9 whole entry): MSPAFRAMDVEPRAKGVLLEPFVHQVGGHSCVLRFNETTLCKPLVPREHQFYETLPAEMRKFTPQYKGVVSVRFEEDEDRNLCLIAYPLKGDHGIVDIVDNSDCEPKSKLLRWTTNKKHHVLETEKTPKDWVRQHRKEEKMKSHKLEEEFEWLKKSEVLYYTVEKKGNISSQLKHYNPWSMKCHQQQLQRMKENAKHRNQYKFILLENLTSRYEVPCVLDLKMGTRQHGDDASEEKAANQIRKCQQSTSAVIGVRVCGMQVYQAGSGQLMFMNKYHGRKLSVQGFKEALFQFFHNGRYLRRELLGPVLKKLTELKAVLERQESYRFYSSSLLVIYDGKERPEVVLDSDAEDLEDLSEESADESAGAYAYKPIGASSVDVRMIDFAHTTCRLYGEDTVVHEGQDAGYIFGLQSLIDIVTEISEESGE
Test: IP6K enzyme inhibitory assay (ADP-Glo Kinase Assay), human IP6K2
Type: biochemical
Settings: compound concentration 0.1 μM; read-out: ADP-Glo method inhibitory rate (%) human IP6K2
Recorded measurements of inhibition at 0.1 µM, one per entry

- structureAsSmiles: "Cc1cc(C)c(O[C@H]2CC[C@@]3(CC2)C(=O)Nc2ccc(C(=O)O)cc23)cn1"
  inhibition at 0.1 µM: "92%"
- structureAsSmiles: "Cc1ccc(O[C@H]2CC[C@@]3(CC2)C(=O)Nc2ccc(C(=O)O)cc23)nc1"
  inhibition at 0.1 µM: "95%"
- structureAsSmiles: "Cc1ccc(C(F)(F)F)c(O[C@H]2CC[C@@]3(CC2)C(=O)Nc2ccc(C(=O)O)cc23)n1"
  inhibition at 0.1 µM: "97%"
- structureAsSmiles: "NC(=O)c1cc(Cl)ccc1O[C@H]1CC[C@@]2(CC1)C(=O)Nc1ccc(C(=O)O)cc12"
  inhibition at 0.1 µM: "97%"

Just for reference, patent US10968178B2 is where these values come from.
